The entries below come with measured pIC50 values attached.
Biological target: Dihydrofolate reductase (Bos taurus, UniProt P00376)
Sequence (P00376 whole entry): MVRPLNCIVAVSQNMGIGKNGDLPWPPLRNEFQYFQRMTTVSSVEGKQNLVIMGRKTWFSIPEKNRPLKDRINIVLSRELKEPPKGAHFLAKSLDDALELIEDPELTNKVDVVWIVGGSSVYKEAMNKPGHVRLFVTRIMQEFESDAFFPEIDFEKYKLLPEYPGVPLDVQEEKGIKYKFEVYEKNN
# log scale: pIC50 equals minus log10 of the concentration in mol/L

Recorded results for 2 compounds are shown here.
{"SMI": "O=C(CN1CCN(c2ccnc3cc(Cl)ccc23)CC1)Nc1nnc(COc2ccc3ccccc3c2)s1", "pIC50": 5.53}
{"SMI": "O=C(CN1CCN(C(c2ccccc2)c2ccccc2)CC1)Nc1nnc(COc2ccc3ccccc3c2)s1", "pIC50": 5.73}

Short answer please: pIC50, Dihydrofolate reductase (Bos taurus, UniProt P00376), entry `O=C(CN1CCN(c2ccccc2O)CC1)Nc1nnc(COc2ccc3ccccc3c2)s1`
5.60

* * *

The entries below come with measured selectivity ratio values attached.
Test: Safety index, ratio of IC50 for antimalarial activity against chloroquine-sensitive Plasmodium falciparum NF54 to IC50 for cytotoxicity against human HEK293 cells
Assay type: toxicity, cell-based
Details: HEK293 cells versus Plasmodium falciparum NF54, read-out: Ratio IC50
No unit in the answer, please; the number alone is enough.

Recorded results for 4 compounds are shown here.
{"SMI": "CCOC(=O)c1cnc2ccccc2c1N1CCN(CC(=O)Nc2nnc(COc3ccc4ccccc4c3)s2)CC1", "selectivity ratio": 1.73}
{"SMI": "O=C(CN1CCN(c2cc(N3CCOCC3)ncn2)CC1)Nc1nnc(COc2ccc3ccccc3c2)s1", "selectivity ratio": 0.82}
{"SMI": "O=C(CN1CCN(c2ccnc3cc(Cl)ccc23)CC1)Nc1nnc(COc2ccc3ccccc3c2)s1", "selectivity ratio": 9.44}
{"SMI": "O=C(CN1CCN(c2ccccc2O)CC1)Nc1nnc(COc2ccc3ccccc3c2)s1", "selectivity ratio": 14.4}

# context switch: different compound, same selectivity ratio
Using the record for `Cc1ccc(N2CCN(CC(=O)Nc3nnc(COc4ccc5ccccc5c4)s3)CC2)cc1` , report its selectivity ratio.
0.79

* * *

Test: Cytotoxicity against human HEK293 cells incubated for 48 hrs by MTT assay
Assay type: toxicity, cell-based
ENDPOINT: IC50 at 48 h (µM)
Numbers only here, please. The scale is µM.

Recorded results for 2 molecules are shown here.
{"MOLECULE": "CN1CCN(CC(=O)Nc2nnc(COc3ccc4ccccc4c3)s2)CC1", "IC50 at 48 h / µM": 69.2}
{"MOLECULE": "O=C(CN1CCN(c2ccnc3cc(Cl)ccc23)CC1)Nc1nnc(COc2ccc3ccccc3c2)s1", "IC50 at 48 h / µM": 70.4}

Using the record for CCN(CC)CCCC(C)Nc1ccnc2cc(Cl)ccc12 (stereo not drawn) [CHLOROQUINE] , report its IC50 at 48 h.
17.2

* * *

Test: Safety index, ratio of IC50 for antimalarial activity against chloroquine-sensitive Plasmodium falciparum NF54 to IC50 for cytotoxicity against human HEK293 cells
Format: toxicity, cell-based
Conditions: HEK293 cells versus Plasmodium falciparum NF54, read-out: Ratio IC50
ENDPOINT: selectivity ratio
No unit in the answer, please; the number alone is enough.

Recorded results for 3 compounds are shown here.
{"SMI": "CN1CCN(CC(=O)Nc2nnc(COc3ccc4ccccc4c3)s2)CC1", "ENDPOINT": "selectivity ratio", "NUMBER": 8.85}
{"SMI": "COc1ccc(N2CCN(CC(=O)Nc3nnc(COc4ccc5ccccc5c4)s3)CC2)cc1", "ENDPOINT": "selectivity ratio", "NUMBER": 0.25}
{"SMI": "O=C(CN1CCCCC1)Nc1nnc(COc2ccc3ccccc3c2)s1", "ENDPOINT": "selectivity ratio", "NUMBER": 2.33}

Using the record for `O=C(CN1CCOCC1)Nc1nnc(COc2ccc3ccccc3c2)s1` , report its selectivity ratio.
6.54

Using the record for `O=C(CN1CCN(C(c2ccccc2)c2ccccc2)CC1)Nc1nnc(COc2ccc3ccccc3c2)s1` , report its selectivity ratio.
53.2

* * *

The entries below come with measured viability at 48 h, 50 µM values attached.
Assay: Cytotoxicity against human HEK293 cells assessed as cell growth at 50 uM incubated for 48 hrs by MTT assay relative to control
Type: toxicity, cell-based
Settings: read-out: Activity
Numbers only here, please. The scale is %.

{"SMI": "CN1CCN(CC(=O)Nc2nnc(COc3ccc4ccccc4c3)s2)CC1", "NUMBER": 42.8}
{"SMI": "O=C(CN1CCN(c2ccccc2O)CC1)Nc1nnc(COc2ccc3ccccc3c2)s1", "NUMBER": 92.9}
{"SMI": "O=C(CN1CCN(c2ccnc3cc(Cl)ccc23)CC1)Nc1nnc(COc2ccc3ccccc3c2)s1", "NUMBER": 43.3}
{"SMI": "O=C(CN1CCCCC1)Nc1nnc(COc2ccc3ccccc3c2)s1", "NUMBER": 86.9}
{"SMI": "Cc1ccc(N2CCN(CC(=O)Nc3nnc(COc4ccc5ccccc5c4)s3)CC2)cc1", "NUMBER": 66.4}

# context switch: different compound, same viability at 48 h, 50 µM
Using the record for `COc1ccc(N2CCN(CC(=O)Nc3nnc(COc4ccc5ccccc5c4)s3)CC2)cc1` , report its viability at 48 h, 50 µM.
58

* * *

Experiment: Cytotoxicity against human HEK293 cells assessed as cell growth at 50 uM incubated for 48 hrs by MTT assay relative to control
Format: toxicity, cell-based
Conditions: read-out: Activity
For each record, check the reported viability at 48 h, 50 µM: if it is below 70% write rule met, else write rule not met.

Before answering, review these 3 worked examples.
{"COMPOUND": "O=C(CN1CCN(C(c2ccccc2)c2ccccc2)CC1)Nc1nnc(COc2ccc3ccccc3c2)s1", "LABEL": "rule not met"}
{"COMPOUND": "O=C(CN1CCN(c2cc(N3CCOCC3)ncn2)CC1)Nc1nnc(COc2ccc3ccccc3c2)s1", "LABEL": "rule not met"}
{"COMPOUND": "CCOC(=O)c1cnc2ccccc2c1N1CCN(CC(=O)Nc2nnc(COc3ccc4ccccc4c3)s2)CC1", "LABEL": "rule met"}

Here's an entry: CCN(CC)CCCC(C)Nc1ccnc2cc(Cl)ccc12 (stereo not given) . Is its viability at 48 h, 50 µM below 70%?
rule met

* * *

Test system: Plasmodium falciparum
Assay: Antimalarial activity against chloroquine-sensitive Plasmodium falciparum NF54 assessed as parasite growth inhibition incubated for 72 hrs by Malstat reagent based LDH assay
Assay type: functional, organism-based
Conditions: NF54, 72 h
The entries below come with measured pIC50 values attached.
# log scale: pIC50 equals minus log10 of the concentration in mol/L

{"SMI": "O=C(CN1CCN(c2ccnc3cc(Cl)ccc23)CC1)Nc1nnc(COc2ccc3ccccc3c2)s1", "pIC50": 5.41}

# context switch: different compound, same pIC50
Using the record for `Cc1ccc(N2CCN(CC(=O)Nc3nnc(COc4ccc5ccccc5c4)s3)CC2)cc1` , report its pIC50.
4.20

* * *

The entries below come with measured IC50 values attached.
Tested on: Plasmodium falciparum
Test: Antimalarial activity against chloroquine-sensitive Plasmodium falciparum NF54 assessed as parasite growth inhibition incubated for 72 hrs by Malstat reagent based LDH assay
Type: functional, organism-based
Conditions: NF54, 72 h
Numbers only here, please. The scale is µM.

Recorded results for 4 compounds are shown here.
{"SMI": "O=C(CN1CCN(c2cc(N3CCOCC3)ncn2)CC1)Nc1nnc(COc2ccc3ccccc3c2)s1", "NUMBER": 61.3}
{"SMI": "O=C(CN1CCN(C(c2ccccc2)c2ccccc2)CC1)Nc1nnc(COc2ccc3ccccc3c2)s1", "NUMBER": 0.94}
{"SMI": "O=C(CN1CCCCC1)Nc1nnc(COc2ccc3ccccc3c2)s1", "NUMBER": 21.5}
{"SMI": "CCOC(=O)c1cnc2ccccc2c1N1CCN(CC(=O)Nc2nnc(COc3ccc4ccccc4c3)s2)CC1", "NUMBER": 28.9}

Using the record for `C=C[C@H]1CN2CC[C@H]1C[C@H]2[C@H](O)c1ccnc2ccc(OC)cc12` , report its IC50.
0.108

* * *

System: Plasmodium falciparum
Experiment: Antimalarial activity against chloroquine-sensitive Plasmodium falciparum NF54 assessed as parasite growth inhibition incubated for 72 hrs by Malstat reagent based LDH assay
Assay type: functional, organism-based
Conditions: NF54, 72 h
The entries below come with measured IC50 values attached.
Numbers only here, please. The scale is µM.

Recorded results for 2 molecules are shown here.
{"SMI": "CN1CCN(CC(=O)Nc2nnc(COc3ccc4ccccc4c3)s2)CC1", "MEASUREMENT_UNIT": "µM", "IC50": 7.83}
{"SMI": "O=C(CN1CCOCC1)Nc1nnc(COc2ccc3ccccc3c2)s1", "MEASUREMENT_UNIT": "µM", "IC50": 10.7}

Short answer please: IC50, Plasmodium falciparum, entry `O=C(CN1CCN(c2ccccc2O)CC1)Nc1nnc(COc2ccc3ccccc3c2)s1`
3.47

The reported measurements were obtained from ChEMBL document CHEMBL5356991.
